# Test system: Staphylococcus aureus
# ASSAY: Antibacterial activity against Staphylococcus aureus ATCC 25923 by broth microdilution method
# Assay type: functional
MEASURE: MIC

See these solved cases before continuing.
| MOLECULE | MEASURE | REPORTED |
| --- | --- | --- |
| O=c1c2ccccc2sn1C1CCCCC1n1sc2ccccc2c1=O (stereo unspecified) | MIC | 3.4 µg/mL |
| CC(=O)Nc1ccccc1-n1sc2ccccc2c1=O | MIC | > 50 µg/mL |
| O=c1c2ccccc2sn1-c1cccc(C(F)(F)F)c1 | MIC | 6.25 µg/mL |

MIC lookup needed for COC(=O)[C@H](CC(C)C)n1sc2ccccc2c1=O , thanks.
3.5 µg/mL

MIC lookup needed for O=c1c2ccccc2sn1-c1ccccc1-n1sc2ccccc2c1=O , thanks.
18 µg/mL

MIC lookup needed for COC(=O)[C@H](c1ccccc1)n1sc2ccccc2c1=O , thanks.
1.5 µg/mL

MIC lookup needed for O=c1c2ccccc2sn1Cc1ccc2c(c1)OCO2 , thanks.
2.6 µg/mL
